Molecular target: T1, purified human CD117 ectodomain (R&D Systems #332-SR) (human, UniProt P10721 26-524)
T1 construct: extracellular domain; Bought protein; also called c-kit; purified recombinant human CD117 ectodomain
T1 sequence (P10721 26-524): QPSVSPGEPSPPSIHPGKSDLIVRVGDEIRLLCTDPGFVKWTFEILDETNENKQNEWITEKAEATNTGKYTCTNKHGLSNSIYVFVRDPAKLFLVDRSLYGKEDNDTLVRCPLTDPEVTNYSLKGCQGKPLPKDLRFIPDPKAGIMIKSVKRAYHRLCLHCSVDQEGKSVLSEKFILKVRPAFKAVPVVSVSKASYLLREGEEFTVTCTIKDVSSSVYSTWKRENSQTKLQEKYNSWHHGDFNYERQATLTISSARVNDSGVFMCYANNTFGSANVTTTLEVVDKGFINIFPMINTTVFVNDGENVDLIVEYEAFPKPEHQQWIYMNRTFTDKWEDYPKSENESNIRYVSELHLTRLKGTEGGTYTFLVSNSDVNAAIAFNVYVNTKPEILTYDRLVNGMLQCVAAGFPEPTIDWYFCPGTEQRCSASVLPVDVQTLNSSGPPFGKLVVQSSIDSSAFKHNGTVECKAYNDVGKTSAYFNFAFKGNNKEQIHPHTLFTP
Assay: BLI, purified IgG on sensor, soluble ectodomain; apparent monovalent
valueType: Kd (nM)

binder	valueType	assayResult
HC-19/LC-19 (Ab19) (antibody, IgG1, V domains shown, From rat immunization/hybridoma; purified IgG in BLI; also called 019) VH: EVQLQESGPGLVKPSQSLSLTCSVTGYSISSNYRWNWIRKFPGNKVEWMGYINSAGSTNYNPSLKSRISMTRDTSKNQFFLQVNSVTTEDTATYYCARSLRGYITDYSGFFDYWGQGVMVTVSS VL: DIRMTQSPASLSASLGETVNIECLASEDIFSDLAWYQQKPGKSPQLLIYNANSLQNGVPSRFSGSGSGTRYSLKINSLQSEDVATYFCQQYKNYPLTFGSGTKLEIK	Kd	2.35
HC-12/LC-12 (Ab12) (antibody, IgG1, V domains shown, Purified IgG; also called 012) VH: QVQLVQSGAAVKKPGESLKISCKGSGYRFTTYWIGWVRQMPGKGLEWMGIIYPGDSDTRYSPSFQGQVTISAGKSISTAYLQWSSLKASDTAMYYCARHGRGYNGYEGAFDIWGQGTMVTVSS VL: DIQLTQSPSSLSASVGDRVTITCRASQGVRSTLAWYQQKPGKAPKLLIYDASILESGVPSRFSGSGSGTDFTLTISSLQPEDFATYYCQQFNGYPLTFGQGTRLEIK	Kd	0.911
HC-14/LC-14 (Ab14) (antibody, IgG1, V domains shown, Purified IgG; also called 014) VH: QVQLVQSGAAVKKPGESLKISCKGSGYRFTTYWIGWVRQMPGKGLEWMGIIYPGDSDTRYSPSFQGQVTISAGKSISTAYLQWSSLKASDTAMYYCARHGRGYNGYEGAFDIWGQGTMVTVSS VL: DIQLTQSPSSLSASVGDRVTITCRASQGISSFLAWYQQKPGKAPKLLIYDASTLQSGVPSRFSGSASGTDFTLTISSLQPEDFATYYCQQLNGYPLTFGGGTKVEIK	Kd	2.03
HC-6/LC-6 (Ab6) (antibody, IgG1, V domains shown, Purified IgG; also called 006) VH: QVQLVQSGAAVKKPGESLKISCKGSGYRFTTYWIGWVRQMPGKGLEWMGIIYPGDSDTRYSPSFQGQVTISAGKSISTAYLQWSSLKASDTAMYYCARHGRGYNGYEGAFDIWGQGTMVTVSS VL: AIRMTQSPSSLSASVGDRVIIACRASQGIGGALAWYQQKPGNAPKVLVYDASTLESGVPSRFSGGGSGTDFTLTISSLQPEDFATYYCQQFNSYPLTFGGGTKLEIK	Kd	3.72
HC-13/LC-13 (Ab13) (antibody, IgG1, V domains shown, Purified IgG; also called 013) VH: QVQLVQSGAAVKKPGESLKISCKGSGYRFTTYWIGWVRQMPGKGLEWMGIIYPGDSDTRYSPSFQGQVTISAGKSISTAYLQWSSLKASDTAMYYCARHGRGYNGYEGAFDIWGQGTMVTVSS VL: DIVMTQSPSSLSASVGDRVTITCRASQGIRNDLGWYQQKPGKAPKLLIYDASSLESGVPSRFSGSGSGTDFTLTISSLQPEDFATYYCQQFNSYPLTFGGGTKLEIK	Kd	1.55
